assay: Selectivity index, ratio of CC50 for human TZM-bl cells to EC50 for X4 tropic Human immunodeficiency virus 1 UG070 subtype D
Type: toxicity, cell-based
experimental_parameters: read-out: Ratio CC50/EC50
Each record's selectivity ratio is compared with band A = under 2, band B = from 2 up to 100, band C = 100 and over to give its class.

Example cases with answers are listed next.
                                   compound  category
0  COc1cc(OC)nc(N2C(=O)CSC2c2c(Cl)cccc2Cl)n1 (stereo not drawn)    band C
1  Cc1cc(C)nc(N2C(=O)CSC2c2c(Cl)cccc2[N+](=O)[O-])c1 (stereo not drawn)    band C
2  N#Cc1ccc(N2C(=O)CSC2c2c(Cl)cccc2Cl)nc1 (stereo not drawn)    band B
3  Cc1cc(C)nc(N2C(=O)CSC2c2ccc(C#N)cc2)c1 (stereo not drawn)    band B
4  N#Cc1ccc(C2SCC(=O)N2c2ccc(C#N)cn2)cc1 (stereo not drawn)    band A
5  O=C1CSC(c2c(F)cccc2F)N1c1ncnc2[nH]cnc12 (stereo not drawn)    band A

# bin lookup: classify Cc1cc(N2C(=O)CSC2c2c(F)cccc2F)nc(C)c1Br (stereo not drawn) by its selectivity ratio
band C

Band for the recorded selectivity ratio of COc1cccc(OC)c1C1SCC(=O)N1c1cc(C)c(Br)c(C)n1 (stereo not drawn) ?
band B

Band assignment needed for COc1cc(OC)nc(N2C(=O)CSC2c2c(Cl)cccc2[N+](=O)[O-])n1 (stereo not drawn) please.
band C

Please indicate the class for COc1cccc(OC)c1C1SCC(=O)N1c1cc(C)on1 (stereo not drawn) based on its selectivity ratio.
band B

Determine which band this compound sits in: O=C1CSC(c2c(F)cccc2F)N1Nc1ccccn1 (stereo not drawn)
band B

Which band does Cc1cccc(C)c1C1SCC(=O)N1NC(=O)c1ccncc1 (stereo not drawn) fall in?
band A

Form field 'band' for O=C1CSC(c2c(F)cccc2Cl)N1Nc1ccccn1 (stereo not drawn)
band B

Exam item: assign O=C1CSC(c2c(Cl)cccc2Cl)N1Nc1ccccn1 (stereo not drawn) to the correct category.
band C

Exercise: read the entry N#Cc1ccc(NN2C(=O)CSC2c2c(Cl)cccc2Cl)cc1 (stereo not drawn) and state which class it falls under.
band A

Band assignment needed for COc1cc(OC)nc(N2C(=O)CSC2c2c(F)cccc2F)n1 (stereo not drawn) please.
band C

Record COc1cc(OC)nc(N2C(=O)CSC2c2c(F)cccc2Cl)n1 (stereo not drawn) — which class?
band C

# bin label for N#Cc1ccc(NN2C(=O)CSC2c2c(F)cccc2F)cc1 (stereo not drawn)
band A

Which class holds Cc1ccc(S(=O)(=O)NN2C(=O)CSC2c2c(F)cccc2Cl)cc1 (stereo not drawn) ?
band A

Entry `Cc1ccnc2c1NC(=O)c1cccnc1N2C1CC1` belongs to which category?
band C

Pick a category. Item: COc1cc(OC)nc(N2C(=O)CSC2c2c(OC)cccc2OC)n1 (stereo not drawn)
band B

Any idea which band N#Cc1ccc(NN2C(=O)CSC2c2c(F)cccc2Cl)cc1 (stereo not drawn) is in?
band A

Hi there! Could you help me figure out the category for N#Cc1ccc(C2SCC(=O)N2c2ccc(C#N)cc2)cc1 (stereo not drawn) please?
band A
